target: full length MPS1 (Homo sapiens); test: biochemical
Sequence (P33981 whole entry): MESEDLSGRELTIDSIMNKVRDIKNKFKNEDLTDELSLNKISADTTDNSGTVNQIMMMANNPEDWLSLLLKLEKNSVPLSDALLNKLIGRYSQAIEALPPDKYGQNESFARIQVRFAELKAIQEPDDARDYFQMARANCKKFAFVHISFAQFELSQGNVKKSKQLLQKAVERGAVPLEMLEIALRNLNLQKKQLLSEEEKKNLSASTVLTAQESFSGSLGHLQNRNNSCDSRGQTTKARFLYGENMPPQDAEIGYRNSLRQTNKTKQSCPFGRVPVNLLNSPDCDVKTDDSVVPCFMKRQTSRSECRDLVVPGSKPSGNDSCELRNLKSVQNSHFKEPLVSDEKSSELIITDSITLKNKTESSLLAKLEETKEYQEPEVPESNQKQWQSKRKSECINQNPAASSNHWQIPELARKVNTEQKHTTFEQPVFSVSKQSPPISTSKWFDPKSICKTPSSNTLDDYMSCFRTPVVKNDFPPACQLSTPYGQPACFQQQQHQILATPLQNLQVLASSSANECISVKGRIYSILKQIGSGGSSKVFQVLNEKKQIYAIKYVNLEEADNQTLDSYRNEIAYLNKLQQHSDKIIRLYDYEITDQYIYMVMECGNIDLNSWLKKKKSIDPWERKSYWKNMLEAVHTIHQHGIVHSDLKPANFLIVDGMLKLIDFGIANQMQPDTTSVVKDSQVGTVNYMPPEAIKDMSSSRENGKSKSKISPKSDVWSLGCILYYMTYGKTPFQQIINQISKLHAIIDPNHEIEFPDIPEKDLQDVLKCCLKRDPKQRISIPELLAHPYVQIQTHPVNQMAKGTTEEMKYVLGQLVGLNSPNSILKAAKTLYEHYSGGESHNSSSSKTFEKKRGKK
pIC50: −log10 of the molar value.
Respond with criterion met for pIC50 values of 8 and above, criterion not met for values below.

These solved cases illustrate the format of a correct answer.
Reported pIC50 reaches at least 8 for CN(C)C(=O)c1ccc(Nc2cc3c(cn2)cc(-c2cnn(C)c2)n3-c2ncccn2)c(Cl)c1 ?
criterion not met

hey, is pIC50 for this one >= 8? CNC(=O)c1ccc(Nc2cc3[nH]c(-c4cnn(C)c4)cc3cn2)c(OC)c1
criterion not met

# bool: pIC50 of Cn1cc(-c2cc3cnc(Nc4ccc(S(C)(=O)=O)cc4Cl)cc3n2C(=O)OC(C)(C)C)cn1 >= 8
criterion not met

Quick check: does COc1cc(C(=O)N2CC(OC)C2)ccc1Nc1cc2[nH]c(-c3cnco3)cc2cn1 have pIC50 greater than or equal to 8?
criterion met

Assess whether reported pIC50 for CNC(=O)c1ccc(Nc2cc3[nH]c(-c4cnn(C)c4)cc3cn2)c(Cl)c1 sits at 8 or higher.
criterion not met

Does Cn1cc(-c2ccc(Nc3cc4[nH]c(-c5cnn(C)c5)c(Cl)c4cn3)c(Cl)c2)cn1 have a reported pIC50 of at least 8?
criterion not met

Check if pIC50 >= 8 (inclusive). Item: Cc1ncn(C)c1-c1ccc(Nc2cc3c(cn2)cc(-c2cnn(C)c2)n3C(=O)OC(C)(C)C)c(Cl)c1
criterion met

Determine whether measured pIC50 meets or exceeds 8 for CS(=O)(=O)n1c(-c2cn[nH]c2)cc2cnc(Nc3ccc(F)cc3)cc21
criterion not met

Further cases:
Would you say CNCc1ccc(Nc2cc3[nH]c(-c4cnn(C)c4)cc3cn2)c(OC)c1 shows pIC50 at minimum 8?
criterion not met

Does Cn1cc(-c2cc3cnc(Nc4ccc(OC(F)F)cc4Cl)cc3[nH]2)cn1 have a reported pIC50 of at least 8?
criterion not met

Hello, I need to know if Cn1cc(-c2cc3cnc(Nc4cccc(OCC#N)c4)cc3n2C(=O)OC(C)(C)C)cn1 has measured pIC50 not below 8. Thanks!
criterion not met

Check the entry Cn1cc(-c2ccc(Cl)c(Nc3cc4[nH]c(-c5cnn(C)c5)cc4cn3)c2)cn1 : does pIC50 equal or exceed 8?
criterion not met

Is pIC50 for Cc1ncc(-c2ccc(Nc3cc4c(cn3)cc(-c3cnn(C)c3)n4C(=O)OC(C)C)cc2)n1C at or above 8?
criterion met

Source of measurements: patent US9371319B2
